Reported cytotoxicity IC50, 786-O cells values for the following binders.
EXPERIMENTAL SYSTEM: T1, human CD70 on CD70 positive cell lines (human, UniProt P32970 1-193)
T1 sequence (looked up): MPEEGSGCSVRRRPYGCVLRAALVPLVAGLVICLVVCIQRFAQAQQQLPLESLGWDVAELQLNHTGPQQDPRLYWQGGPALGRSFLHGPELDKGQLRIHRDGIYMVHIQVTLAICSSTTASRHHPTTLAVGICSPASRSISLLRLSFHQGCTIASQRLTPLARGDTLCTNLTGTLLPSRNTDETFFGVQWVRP
METHOD NOTES: cell-based or functional assay
VALUE KIND: cytotoxicity IC50, 786-O cells

{"BINDER": "c1F6(293)-F8 (c1F6 conjugated to vcMMAF, eight drug units per antibody) (antibody, V domains shown, vcMMAF conjugated, loading level of eight drug units per antibody; attachment residues not stated) VH: QIQLVQSGPEVKKPGETVKISCKASGYTFTNYGMNWVKQAPGKGLKWMGWINTYTGEPTYADAFKGRFAFSLETSASTAYLQINNLKNEDTATYFCARDYGDYGMDYWGQGTSVTVSS VL: DIVLTQSPASLAVSLGQRATISCRASKSVSTSGYSFMHWYQQKPGQPPKLLIYLASNLESGVPARFSGSGSGTDFTLNIHPVEEEDAATYYCQHSREVPWTFGGGTKLEIKR", "ENDPOINT VALUE": "2.4 ng/mL"}
{"BINDER": "h1F6 HELA-F8 (humanized 1F6 derivative HELA, hVHE and hVLA, conjugated to vcMMAF, eight drug units per antibody) (antibody, human IgG1, kappa, V domains shown, vcMMAF conjugated, loading level of eight drug units per antibody; attachment residues not stated) VH: QVQLVQSGAEVKKPGASVKVSCKASGYTFTNYGMNWVRQAPGQGLEWMGWINTYTGEPTYADAFKGRVTMTRDTSISTAYMELSRLRSDDTAVYYCARDYGDYGMDYWGQGTTVTVSS VL: DIVMTQSPDSLAVSLGERATINCRASKSVSTSGYSFMHWYQQKPGQPPKLLIYLASNLESGVPDRFSGSGSGTDFTLTISSLQAEDVAVYYCQHSREVPWTFGQGTKVEIKR", "ENDPOINT VALUE": "5.2 ng/mL"}
{"BINDER": "h1F6 HMLA-F8 (humanized 1F6 derivative HMLA, hVHM and hVLA, conjugated to vcMMAF, eight drug units per antibody) (antibody, human IgG1, kappa, V domains shown, vcMMAF conjugated, loading level of eight drug units per antibody; attachment residues not stated) VH: QVQLVQSGAEVKKPGASVKVSCKASGYTFTNYGMNWVRQAPGQGLKWMGWINTYTGEPTYADAFKGRFAFSLDTSTSTAYMELRSLRSDDTAVYYCARDYGDYGMDYWGQGTTVTVSS VL: DIVMTQSPDSLAVSLGERATINCRASKSVSTSGYSFMHWYQQKPGQPPKLLIYLASNLESGVPDRFSGSGSGTDFTLTISSLQAEDVAVYYCQHSREVPWTFGQGTKVEIKR", "ENDPOINT VALUE": "2.8 ng/mL"}
{"BINDER": "h1F6 HHLA-F8 (HHLA conjugated to vcMMAF, eight drug units per antibody) (antibody, human IgG1, kappa, V domains shown, vcMMAF conjugated, loading level of eight drug units per antibody; attachment residues not stated) VH: QVQLVQSGAEVKKPGASVKVSCKASGYTFTNYGMNWVRQAPGQGLEWMGWINTYTGEPTYADAFKGRFAFSLDTSTSTAYLQINSLRSDDTAVYYCARDYGDYGMDYWGQGTTVTVSS VL: DIVMTQSPDSLAVSLGERATINCRASKSVSTSGYSFMHWYQQKPGQPPKLLIYLASNLESGVPDRFSGSGSGTDFTLTISSLQAEDVAVYYCQHSREVPWTFGQGTKVEIKR", "ENDPOINT VALUE": "2.3 ng/mL"}
